- Tested on: respective peptides conjugated to BSA or KLH
- assay_details: ELISA total IgG antibody responses to the respective peptide
- Type: in vivo, SJL/J mice
- Parameters: key: −: negative; +/−: very weak; +: weak; ++: moderate; +++: strong
- condition_label: Table 2; peptide analogues conjugated to reduced mannan-KLH
quantity_name: Antibody

substance | quantity_name | meas_value
cyclo(83-99)E N P V V H F F A N I V T P R T P (ENPVVHFFANIVTPRTP; cyclised or stapled) [cyclo(83-99)[A^91]MBP83-99] | Antibody | +/−
E N P V V H F F R N I V T A R T P (ENPVVHFFRNIVTARTP) [[R^91, A^96]MBP83-99] | Antibody | +++
E N P V V H F F E N I V T P R T P (ENPVVHFFENIVTPRTP) [[E^91]MBP83-99] | Antibody | +++
